targetEntity: 5-HT1A (Rattus norvegicus, UniProt P19327)
Sequence (P19327 whole entry): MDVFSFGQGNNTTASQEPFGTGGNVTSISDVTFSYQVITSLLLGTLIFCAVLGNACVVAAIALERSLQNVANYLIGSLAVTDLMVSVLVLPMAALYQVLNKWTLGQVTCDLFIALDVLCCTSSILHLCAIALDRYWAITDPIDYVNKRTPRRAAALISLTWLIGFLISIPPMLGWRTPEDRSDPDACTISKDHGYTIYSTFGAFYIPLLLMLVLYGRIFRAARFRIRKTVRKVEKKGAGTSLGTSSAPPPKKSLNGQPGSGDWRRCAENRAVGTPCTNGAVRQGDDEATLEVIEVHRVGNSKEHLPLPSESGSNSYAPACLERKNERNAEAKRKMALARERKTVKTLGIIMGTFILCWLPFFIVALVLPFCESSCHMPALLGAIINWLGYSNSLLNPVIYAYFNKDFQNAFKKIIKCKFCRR
experimentalProtocol: Binding to the 5-HT1A receptor (displacement of [3H]8-OH-DPAT)
Set-up: Brains from male Sprague-Dawley 180-200 g rats; tissue Iffa Credo, France (animals); host or cells: rat brain cortex; species or system rat (male Sprague-Dawley), brain cortex
measurementConditions: read-out: pKi 5-HT1A (converted)
Counter-ions that a name gives are not always drawn.
Kindly apply the following: Y if Ki is less than 0.3 nM, N in every other case.

Ki under 0.3 nM? Item: Cn1ncc(OCC[C@H]2CC[C@@H]3CN(c4ncccn4)CCN3C2)nc1=O (relative stereo) [Compound 24]
N

Does the reported Ki of the following compound sit strictly below 0.3 nM? Cc1ccnc(N2CCN(CCCCOc3cnn(C)c(=O)n3)CC2)n1.O=C(O)/C=C/C(=O)O [Compound 2, fumarate]
Y

Regarding Cn1ncc(OCCCCNC[C@@H]2COc3ccccc3O2)nc1=O [Compound 21, fumarate] , kindly confirm whether its Ki is beneath 0.3 nM.
N

hey, is Ki for Cn1ncc(OCCCCN2CCN(c3ncc(F)cn3)CC2)nc1=O lower than 0.3 nM or not?
N

Record COc1ccc(Cl)cc1N1CCN(CCCCOc2cnn(C)c(=O)n2)CC1 : is its Ki strictly below 0.3 nM?
N

Would you kindly verify if Ki of Cn1ncc(OCCCCNC[C@H]2COc3ccccc3O2)nc1=O [Compound 22, fumarate] is strictly less than 0.3 nM?
Y

Here's an entry: COc1cccnc1N1CCN(CCCCOc2cnn(C)c(=O)n2)CC1 [Compound 15, fumarate] . Is its Ki below 0.3 nM?
Y

Consider Cn1ncc(OCCCCNCC2COc3ccccc3O2)nc1=O (centres unmarked) . Does its Ki lie strictly below 0.3 nM?
Y

====

targetEntity: α1-adrenergic receptor
experimentalProtocol: Binding to the α1-adrenergic receptor (displacement of [3H]Prazosin)
Design: species or system rat (male Sprague-Dawley), brain cortex
measurementConditions: rat cortex, 30 min, 23 °C, mean of at least 3 experimentations
Would you kindly list pKi α1 for each of these molecules?
Form field (numeric): enter value without unit.

Output pKi α1 of COc1ccc(Cl)cc1N1CCN(CCCCOc2cnn(C)c(=O)n2)CC1
8.21

Answer with the recorded pKi α1 of Cn1ncc(OCCCCNCC2COc3ccccc3O2)nc1=O (stereo not shown) only.
7.65

Please report pKi α1 for the following molecule: O=C1CC2(CCCC2)CC(=O)N1CCCCN1CCN(c2ncccn2)CC1 [Buspirone, reference compound]
6.19

Tell us which pKi α1 value is on record for Cc1ccnc(N2CCN(CCCCOc3cnn(C)c(=O)n3)CC2)n1.O=C(O)/C=C/C(=O)O
6.11

Give the value of pKi α1 reported for the following: Cn1ncc(OCCCCN2CCN(c3ncccn3)CC2)nc1=O
6.25

Specify measured pKi α1 for COc1ccnc(N2CCN(CCCCOc3cnn(C)c(=O)n3)CC2)n1 .
6.74

Complete the entry with pKi α1 for Cn1ncc(OCCCCN2CCN(c3nccc(Cl)n3)CC2)nc1=O
6.25

Return value of pKi α1 for input O=C(NCCN1CCN(c2cccc3c2OC[C@H](CO)O3)CC1)c1ccc(F)cc1 [Flesinoxan, reference compound] , no commentary.
6.50

Please look at this molecule and report its pKi α1: Cn1ncc(OCC[C@H]2CC[C@@H]3CN(c4ncccn4)CCN3C2)nc1=O (relative stereo)
6.35

Tell me measured pKi α1 for Cc1cc(C)nc(N2CCN(CCCCOc3cnn(C)c(=O)n3)CC2)n1.O=C(O)/C=C/C(=O)O please.
6.01
